- experiment.notes: Phase one study: effect of food on single 1000 mg dose PK (fasted vs fed)
- Assay type: in vivo, human
- applied.conditions: human, plasma, oral, 1000 mg, 1000 mg single dose, fasted; read-out: t1/2, median, free DGLA, baseline-corrected plasma (converted)
reported.metric: half-life
Number plus unit, in that order.

Which half-life value is on record for CCCCC/C=C\C/C=C\C/C=C\CCCCCCC(=O)O [DS107G, Dihomo gamma linolenic acid] ? 28.3 h

----------
- experiment.notes: Phase one study part 1: single dose plasma PK of free and total DGLA, fasted
- Type: in vivo, human
- applied.conditions: both sexes, human, plasma, oral, 500 mg single dose, read-out: t1/2, median, free DGLA, baseline-corrected plasma (converted)
reported.metric: half-life (h)
Respond with the bare value in h.

Which half-life value is on record for CCCCC/C=C\C/C=C\C/C=C\CCCCCCC(=O)O [DS107G, Dihomo gamma linolenic acid] ? 206
